- Run Description: MTT viability assay after treatment with Fluc mRNA/amino lipidated peptoid formulations
- Type: cell-based
- Measurement Context: human, HeLa cells, Relative Viability (%) 2% PEG
Could you please report measured viability at 8 h, 500 ng/well for the items listed next?
Numbers only, in %.

| Compound | viability at 8 h, 500 ng/well / % |
| --- | --- |
| CCCCCCCCCCN(CC(N)=O)C(=O)CN(CCCCCCCCCC)C(=O)CN(CCc1ccccc1)C(=O)CN(CCc1ccccc1)C(=O)CN(CCN)C(=O)CN(CCc1ccccc1)C(=O)CN(CCc1ccccc1)C(=O)CN(CCN)C(=O)CN(CCc1ccccc1)C(=O)CN(CCc1ccccc1)C(=O)CN(CCN)C(=O)CN(CCc1ccccc1)C(=O)CN(CCc1ccccc1)C(=O)CNCCN | 104 |

Please look at the items below and tell me viability at 8 h, 500 ng/well for each one, in order.
1. CCCCCCCCCCN(CC(N)=O)C(=O)CN(CCCCCCCCCC)C(=O)CN(CCCCCCCCCC)C(=O)CN(CCCCCCCCCC)C(=O)CN(CCc1ccccc1)C(=O)CN(CCc1ccccc1)C(=O)CN(CC1CCCN1)C(=O)CN(CCc1ccccc1)C(=O)CN(CCc1ccccc1)C(=O)CN(CC1CCCN1)C(=O)CN(CCc1ccccc1)C(=O)CN(CCc1ccccc1)C(=O)CNCC1CCCN1 (stereo not shown)
2. CCCCCCCCCCN(CC(N)=O)C(=O)CN(CCCCCCCCCC)C(=O)CN(CCc1ccccc1)C(=O)CN(CCN)C(=O)CN(CCc1ccccc1)C(=O)CN(CCN)C(=O)CN(CCc1ccccc1)C(=O)CNCCN
3. CCCCCCCCCCN(CC(N)=O)C(=O)CN(CCCCCCCCCC)C(=O)CN(CCc1ccccc1)C(=O)CN(CCc1ccccc1)C(=O)CN(CC1CCCN1)C(=O)CN(CCc1ccccc1)C(=O)CN(CCc1ccccc1)C(=O)CN(CC1CCCN1)C(=O)CN(CCc1ccccc1)C(=O)CN(CCc1ccccc1)C(=O)CNCC1CCCN1 (stereo not shown)
4. CCCCCCCCCCN(CC(N)=O)C(=O)CN(CCCCCCCCCC)C(=O)CN(CCc1ccccc1)C(=O)CN(CCc1ccccc1)C(=O)CN(CCN)C(=O)CN(CCc1ccccc1)C(=O)CN(CCc1ccccc1)C(=O)CNCCN
5. CCCCCCCCCCN(CC(N)=O)C(=O)CN(CCCCCCCCCC)C(=O)CN(CCCCCCCCCC)C(=O)CN(CCCCCCCCCC)C(=O)CN(CCc1ccccc1)C(=O)CN(CCc1ccccc1)C(=O)CN(CC1CCNCC1)C(=O)CN(CCc1ccccc1)C(=O)CN(CCc1ccccc1)C(=O)CN(CC1CCNCC1)C(=O)CN(CCc1ccccc1)C(=O)CN(CCc1ccccc1)C(=O)CN(CC1CCNCC1)C(=O)CN(CCc1ccccc1)C(=O)CN(CCc1ccccc1)C(=O)CNCC1CCNCC1
6. CCCCCCCCCCN(CC(N)=O)C(=O)CN(CCCCCCCCCC)C(=O)CN(CCCCCCCCCC)C(=O)CN(CCCCCCCCCC)C(=O)CN(CCCCCCCCCC)C(=O)CN(CCc1ccccc1)C(=O)CN(CCc1ccccc1)C(=O)CN(CCN)C(=O)CN(CCc1ccccc1)C(=O)CN(CCc1ccccc1)C(=O)CNCCN

106
85.9
108
108
102
93
